Source listed as PubChem BioAssay (NCI).

System: SNB-75 CNS
test.method.notes: NCI tumour cell line growth inhibition, 48 h
*1 amine or outer side, *2 acyl side, *3 side chain or, on linkers, in order; H or OH if unused. Where a SMILES comes first, the peptide text is derived from it. Bridges are numbered along the chain shown (N, C = ends). [ ]: non-standard residue; d: D form. The star is where a group is joined. Phe(3,5-F2) = N[C@@H](Cc1cc(F)cc(F)c1)C(=O)O; Pro(4R-Me) = C[C@H]1CN[C@H](C(=O)O)C1; aThr = C[C@H](O)[C@H](N)C(=O)O; Pip = O=C(O)[C@@H]1CCCCN1; X10 = Fc1cc(C2CC2)ccc1N*; CO = O=C([*:1])[*:2]

# compound, GI50
measured = [
    ("Cc1nc2sccn2c1-c1csc(Nc2ccccc2Cl)n1", "4.08 µM"),
    ("Nc1nc(-n2c(-c3ccccc3)nc3c(Br)cc(Br)cc3c2=O)nnc1-c1cccc(Cl)c1Cl", "8.65 µM"),
    ("C=CCO[C@H]1CO[C@H]2[C@@H]1OC[C@@H]2Oc1ccc(Nc2ccnc(Nc3ccc(O[C@H]4CO[C@H]5[C@@H]4OC[C@@H]5OCC=C)c(Cl)c3)n2)cc1Cl", "1.86 µM"),
    ("C=CC(=O)Nc1cc(Nc2ncc(C(=O)OC(C)C)c(-c3cn(C)c4ccccc34)n2)c(OC)cc1N(C)CCN(C)C", "1.93 µM"),
    ("CCC[CH2][Sn]([CH2]CCC)([S]c1cccc2cccnc12)[S]c1cccc2cccnc12", "0.234 µM"),
    ("COC([CH2][Hg][n]1cnc2c1c(=O)n(C)c(=O)n2C)CN1C(=O)c2ccccc2S1(=O)=O (stereo not given)", "> 100 µM"),
    ("Cc1ccc(CN2CCC(C(=O)Nc3ccc(-c4cc5ccccc5[nH]4)cc3)CC2)o1", "12.7 µM"),
    ("C[C@@H]1C[C@H]2C(=O)O[C@@H](C)[C@H](NC(=O)[C@H](Cc3cc(F)cc(F)c3)NC(=O)Nc3ccc(C4CC4)cc3F)C(=O)N3CCC[C@H]3C(=O)N3CCCC[C@H]3C(=O)N[C@@H](C)C(=O)N2C1 ({X10-CO}-[Phe(3,5-F2)][aThr]P[Pip]A[Pro(4R-Me)]; ester 2-C)", "0.0485 µM"),
    ("OCc1cc2ccccc2c2c3c(ccc12)OCO3", "18.4 µM"),
    ("O=C1NC(=NCCc2cccc(F)c2)S/C1=C\\c1ccc2ncccc2c1", "3.79 µM"),
]

---

System: SN12C renal
test.method.notes: NCI tumour cell line growth inhibition, 48 h
*1 amine or outer side, *2 acyl side, *3 side chain or, on linkers, in order; H or OH if unused. Where a SMILES comes first, the peptide text is derived from it. Bridges are numbered along the chain shown (N, C = ends). [ ]: non-standard residue; d: D form. The star is where a group is joined. Phe(3,5-F2) = N[C@@H](Cc1cc(F)cc(F)c1)C(=O)O; Pro(4R-Me) = C[C@H]1CN[C@H](C(=O)O)C1; aThr = C[C@H](O)[C@H](N)C(=O)O; NMeAc5c = CNC1(C(=O)O)CCCC1; Pip = O=C(O)[C@@H]1CCCCN1; X10 = Fc1cc(C2CC2)ccc1N*; Boc = CC(C)(C)OC(=O)*; CO = O=C([*:1])[*:2]; OBn = c1ccc(CO*)cc1

# molecule, TGI
rows = [
    ("CN1CCN(C2=NCCO2)CC1", "> 100 µM"),
    ("S=C1Nc2ccccc2SC1c1ccccc1 (stereo not given)", "> 100 µM"),
    ("Fc1ccc(NC(=S)SCc2ccc3c(c2)OCO3)cc1F", "39.4 µM"),
    ("Cc1ccc(N=NC(=Nc2ccccc2)c2ccc(N(CCC#N)CCC#N)cc2)cc1", "> 100 µM"),
    ("CCOC(=O)C(SCCO)C(C(=O)OCC)n1cnc2c(=O)[nH]c(NC(C)=O)nc21 (stereo not given)", "> 100 µM"),
    ("NS(=O)(=O)OC[C@@H]1C[C@@H](n2ccc3c(NC4CCc5ccccc54)ncnc32)C[C@@H]1O (stereo not given in full)", "> 100 µM"),
    ("Cc1cnc(NCCCN(C)C)c2c1[nH]c1ccc3cc(O)ccc3c12", "1.78 µM"),
    ("CN(C)c1ccc(/C=C\\C2=[N+](C)c3ccccc3C2(C)C)cc1", "14.6 µM"),
    ("ClCCN1CCC2(CC1)SSC1(CCN(CCCl)CC1)S2", "72.8 µM"),
    ("O=c1c2cc([N+](=O)[O-])cnc2sn1-c1ccc([N+](=O)[O-])cc1", "> 100 µM"),
    ("CCN(CC)N=Nc1c(C(N)=O)n[nH]c1C", "> 100 µM"),
    ("Cc1ccc(Cl)c2c(N=Nc3ccccc3[N+](=O)[O-])c(O)[nH]c12", "> 100 µM"),
    ("O=c1ccc(-c2ccccc2)n[nH]1", "> 100 µM"),
    ("CCCN(C(=O)c1ccccc1)C(C#N)c1ccc(C(C#N)N(CCC)C(=O)c2ccccc2)cc1 (stereo not given)", "> 100 µM"),
    ("CCC[CH2][Sn]([CH2]CCC)([S]c1cccc2cccnc12)[S]c1cccc2cccnc12", "0.822 µM"),
    ("C[C@@H]1C[C@H]2C(=O)O[C@@H](C)[C@H](NC(=O)[C@H](Cc3cc(F)cc(F)c3)NC(=O)Nc3ccc(C4CC4)cc3F)C(=O)N3CCC[C@H]3C(=O)N3CCCC[C@H]3C(=O)N[C@@H](C)C(=O)N2C1 ({X10-CO}-[Phe(3,5-F2)][aThr]P[Pip]A[Pro(4R-Me)]; ester 2-C)", "42.7 µM"),
    ("C=C(C)C(OC)C(O)CC1(C)CC(O)CC(C)(C2CCC3OC(C4(C)CCC(Br)C(C)(C)O4)CCC3(C)O2)O1 (stereo not given)", "39.4 µM"),
    ("Clc1ccccc1C(SCc1ccccc1)SCc1ccccc1", "> 100 µM"),
    ("COc1ccc(COCCOCc2nc(C#N)c(N)o2)cc1", "> 100 µM"),
    ("COC1/C=C/OC2(C)Oc3c(C)c(O)c4c(O)c(c(/C=N/Nc5ccc([N+](=O)[O-])cc5[N+](=O)[O-])c(O)c4c3C2=O)NC(=O)C(C)=C/C=C/C(C)C(O)C(C)C(O)C(C)C(OC(C)=O)C1C (stereo not given)", "> 50 µM"),
    ("C1=C2/CC[C@H](Sc3ccccc3)C2C2(CCCCC/1)OCCO2 (stereo not given in full)", "> 100 µM"),
    ("Cc1c(C(=O)CC(=O)C(=O)Nc2ccccc2C(F)(F)F)[n+](=O)c2ccccc2n1[O-]", "54.4 µM"),
    ("COc1ccc(C2CC(c3c(O)ccc4ccccc34)=NN2C(C)=O)cc1OC (stereo not given)", "> 100 µM"),
    ("COC(=O)/C=C1\\S/C(=N\\NC(=O)c2cc3ccc2/C=C\\c2ccc(cc2)/C=C\\3)N(c2ccccc2)C1=O", "5.94 µM"),
    ("O=[N+]([O-])c1cccc(-c2csc(NNC3=NC/C(=C/c4ccc5c(c4)OCO5)S3)n2)c1", "> 100 µM"),
    ("Cc1nc2c(ccc3ncccc32)[nH]1", "> 100 µM"),
    ("CN(C)C(=S)N=C(Nc1ccccc1)Nc1ccccc1", "> 100 µM"),
    ("Nc1nc(-n2c(-c3ccccc3)nc3c(Br)cc(Br)cc3c2=O)nnc1-c1cccc(Cl)c1Cl", "> 100 µM"),
    ("Cc1cc(Cc2cc(C)c(N)cc2N)c(N)cc1N", "> 100 µM"),
    ("Cc1ccccc1C(=O)N1CCc2c([nH]c3ccccc23)C1", "34.1 µM"),
    ("COc1cc(C(=O)N(C(=S)OCc2ccccn2)c2ccccc2)cc(OC)c1OC", "> 100 µM"),
    ("CC1(C)N=[N+]([O-])C1(C)C", "> 100 µM"),
    ("NC(N)=N/N=C/c1c(-c2ccc(N)cc2)nc2sccn12", "48.7 µM"),
    ("CNS(=O)(=O)NNS(=O)(=O)c1ccccc1", "> 100 µM"),
    ("CN(C(=O)C(Cc1ccccc1)NC(=O)OC(C)(C)C)C1(C(=O)NC(Cc2ccccc2)C(=O)OCc2ccccc2)CCCC1 (stereo not drawn) (Boc-Phe-[NMeAc5c]-Phe-OBn; configuration not given here)", "> 100 µM"),
    ("Cc1nc2sccn2c1-c1csc(Nc2ccccc2Cl)n1", "> 100 µM"),
    ("O=C1CC(NC(=O)C(F)(F)F)c2c(Br)sc(N3CCNCC3)c21 (stereo not given)", "> 100 µM"),
    ("CCCC1C(=O)CCc2c(OC)ccc(OC)c21 (stereo not given)", "> 100 µM"),
    ("CCCCCCc1cc2cc(-c3csc(CC#N)n3)c(=O)oc2cc1O", "> 100 µM"),
    ("c1ccc(N=c2sc3ccccc3nc2Nc2ccccc2)cc1", "> 100 µM"),
]
